// reported MIC for each item listed
- System: Enterococcus faecalis CCM 4224, ATCC 29212
- Protocol Details: Antibacterial microdilution broth MIC, EF
- Format: cell-based
- Conditions Used: 48 h, read-out: MIC EF 48h

Worked examples, 3 molecules total:
| Smiles Notation | Study System | Reading |
| --- | --- | --- |
| COc1ccc(CC(=O)Nc2cccc(Cl)n2)cc1 | Enterococcus faecalis CCM 4224, ATCC 29212 | 500 µM |
| COc1cccc(CC(=O)Nc2ccccn2)c1 | Enterococcus faecalis CCM 4224, ATCC 29212 | > 125 µM |
| O=C(Cc1ccc(C(F)(F)F)cc1)Nc1ccc(Cl)cn1 | Enterococcus faecalis CCM 4224, ATCC 29212 | > 500 µM |

// recorded MIC for `O=C(Cc1ccc(F)cc1)Nc1ccc(Cl)cn1` : > 500 µM

Please fill in: MIC reported for `COc1cccc(CC(=O)Nc2ccc(Cl)cn2)c1` = > 500 µM

Short answer for `O=C(Cc1cccc(Cl)c1)Nc1ccccn1` : MIC was > 500 µM
